Assay: pharmacokinetics of nalbuphine in rat plasma after intramuscular injection
Settings: male, Sprague-Dawley, rat, plasma, im, 24 mg/kg, t1/2, k01, Sprague-Dawley rats, 24 mg/kg (FIG. 7); means ± S.E.
Counter-ions that a name gives are not always drawn.
Measurement type: half-life

Compound	Obs value
Oc1ccc2c3c1O[C@H]1[C@@H](O)CC[C@@]4(O)[C@@H](C2)N(CC2CCC2)CC[C@]314 [Nalbuphine-HCl, nalbuphine hydrochloride]	8.4 min

====

Test: pharmacokinetics of nalbuphine in beagle plasma after intramuscular injection
Conditions: beagle, dog, plasma, im, 5 mg/kg
Structures can show the parent of a compound that is named as a salt.

Compound	Cmax, ng/mL
Oc1ccc2c3c1O[C@H]1[C@@H](O)CC[C@@]4(O)[C@@H](C2)N(CC2CCC2)CC[C@]314 [Nalbuphine-HCl, nalbuphine hydrochloride]	2460

Sourced from patent US6680067B2
